systemName: HCV polymerase 1B (Δ21 NS5B, BK) (Hepatitis C virus genotype 1b)
Construct: 20 to 50 nM Δ21 NS5B
Sequence (P26663 2420-2989, stated change not applied): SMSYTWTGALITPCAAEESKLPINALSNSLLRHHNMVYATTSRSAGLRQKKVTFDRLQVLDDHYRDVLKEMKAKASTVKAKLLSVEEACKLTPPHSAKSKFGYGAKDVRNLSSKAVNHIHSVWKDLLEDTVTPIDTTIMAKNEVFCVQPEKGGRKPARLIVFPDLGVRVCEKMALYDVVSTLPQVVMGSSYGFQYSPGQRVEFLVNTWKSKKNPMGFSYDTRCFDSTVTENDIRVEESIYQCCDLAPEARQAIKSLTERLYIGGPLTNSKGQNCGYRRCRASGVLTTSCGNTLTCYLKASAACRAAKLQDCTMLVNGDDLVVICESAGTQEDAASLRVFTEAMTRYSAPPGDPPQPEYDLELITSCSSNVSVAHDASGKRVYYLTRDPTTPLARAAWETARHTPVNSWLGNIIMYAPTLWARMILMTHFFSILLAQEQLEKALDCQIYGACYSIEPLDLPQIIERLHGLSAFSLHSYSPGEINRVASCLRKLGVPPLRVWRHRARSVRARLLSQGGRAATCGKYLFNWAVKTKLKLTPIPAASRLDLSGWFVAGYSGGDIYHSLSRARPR
protocol: biochemical
pIC50: −log10 of the molar value.
measuredEndpoint: pIC50

> print(dat)
                                   compound                                systemname  measuredendpoint     testvalue
1  COc1c(-c2ccc3c(CNS(C)(=O)=O)coc3c2)cc(-n2ccc(=O)[nH]c2=O)cc1C(C)(C)C  HCV polymerase 1B (Δ21 NS5B, BK) (Hepatitis C virus genotype 1b)             pIC50  7.00 to 8.00
2  CCCC(=O)OCN(c1ccc(NC(=O)c2cc(N3CCC(=O)NC3=O)cc(C(C)(C)C)c2OC)cc1)S(C)(=O)=O  HCV polymerase 1B (Δ21 NS5B, BK) (Hepatitis C virus genotype 1b)             pIC50        < 6.00
3  CC(C)(C)c1cc(N2CCC(=O)NC2=O)cc(C(=O)Nc2cccc(NS(C)(=O)=O)c2)c1O  HCV polymerase 1B (Δ21 NS5B, BK) (Hepatitis C virus genotype 1b)             pIC50  7.00 to 8.00
4  COc1c(-c2ccc3c(c2)CCC3NS(C)(=O)=O)cc(-n2ccc(=O)[nH]c2=O)cc1C(C)(C)C (stereo not shown)  HCV polymerase 1B (Δ21 NS5B, BK) (Hepatitis C virus genotype 1b)             pIC50  6.00 to 7.00
